The reader will find reported pKd values listed item by item below.
Molecular target: T1, recombinant soluble human TREM2 protein (human TREM2 ECD-FlagHis) (human, UniProt Q9NZC2 19-174)
T1 sequence: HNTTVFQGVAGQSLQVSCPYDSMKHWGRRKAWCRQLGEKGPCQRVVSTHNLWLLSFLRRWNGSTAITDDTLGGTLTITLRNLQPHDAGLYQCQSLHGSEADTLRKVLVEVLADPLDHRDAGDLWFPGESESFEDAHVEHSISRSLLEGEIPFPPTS
Experiment: Octet BLI, antibody on anti-human Fc sensor, 25 C
// returns pKd (minus log10 of molar concentration), number only

4C5 (antibody, V domains shown, human IgG2 from hybridoma) VH: EVQLVQSGAEVKKPGESLKISCKGSGHSFTNYWIAWVRQMPGKGLEWMGIIYPGDSDTRYSPSFQGQVTISADKSISTAYLQWSSLKASDTAVYFCARQRTFYYDSSGYFDYWGQGTLVTVSS VL: DIQMTQSPSSVSASVGDRVTITCRASQGISNWLAWYQQKPGKAPKLLIYAASSLQVGVPLRFSGSGSGTDFTLTISSLQPEDFATYYCQQADSFPRNFGQGTKLEIK
8.51
13E7 (antibody, human IgG2, V domains shown, human IgG2 from hybridoma) VH: EVQLVQSGAEVKKPGESLMISCKGSGYSFTSYWIGWVRQMPGKGLEWMGIIYPGDSDTRYSPSFQGQVTISADKSISTAYLQWSSLKASDTAMYFCARRRQGIWGDALDFWGQGTLVTVSS VL: EIVMTQSPATLSVSPGERATLSCRASQSVSSNLAWFQQKPGQAPRLLIYGASTRATGIPARFSVSGSGTEFTLTISSLQSEDFAVYYCLQDNNWPPTFGPGTKVDIK
7.96

Please examine the following record next.
# pKd (binder: 5E3 (antibody, human IgG2, V domains shown, human IgG2 from hybridoma) VH: QVQLVQSGAEVKKPGASVKVSCKASGYTFTGYYIHWVRQAPGLGLEWMGWINPYSGGTTSAQKFQGRVTMTRDTSISSAYMELSRLRSDDTAVYYCARDGGYLALYGTDVWGQGTTVTVSS VL: DIQMTQSPSSLSASVGDRVTITCRASQGISNYLAWFQQKPGKAPKSLIYAASSLQSGVPSKFSGSGSGTDFTLTISSLQPEDFATYYCQQYSTYPFTFGPGTKVDIK ) is 8.68

Cited source for all entries: patent US20220204611A1
